# TEST_DESCRIPTION: Toxicity liver stage against HepG2, at 10uM
# Type: cell-based
# Set-up: test concentration 10 uM, cell line HepG2-A16-CD81EGFP
# SETUP_CONDITIONS: human, HepG2-A16-CD81EGFP cells; read-out: INHIBITION
ENDPOINT_NAME: cytotoxicity at 10 µM (%)
All answers are understood in %, so give the number only.

Worked set:
# COMPOUND, UNIT_OF_MEASUREMENT, cytotoxicity at 10 µM
measured = [
    ("Cc1nc(C)c(CC(=O)N2CCN(CC(C)C)CC2)c(=O)[nH]1", "%", -12.3),
    ("Cc1nc(N2CCCC2)nc2c1CCN(C(=O)C1CCC1)CC2", "%", 3.39),
]

Can you share its cytotoxicity at 10 µM? I mean this compound: "Cc1nc2c(N3CCN(CCO)CC3)nc(N)nc2n1C"
-10.8

Can you share its cytotoxicity at 10 µM? I mean this compound: CC(N)Cc1ccccc1Sc1ccc(O)cc1 (configuration not stated)
3.76

Can you share its cytotoxicity at 10 µM? I mean this compound: "COc1ccc(CN2C[C@@H]3COC[C@]3(CN(C)C)C2)cc1"
-1.75

Can you share its cytotoxicity at 10 µM? I mean this compound: "CS(=O)(=O)Nc1ccn(Cc2cccc(Cl)c2)n1"
8.66

Can you share its cytotoxicity at 10 µM? I mean this compound: "COCC(=O)N1C[C@H]2CNC[C@@]2(C(=O)NCc2cccc3[nH]ccc23)C1"
6.65

Can you share its cytotoxicity at 10 µM? I mean this compound: "CCN(CC)C(=O)c1ccn(COc2cccc(Cl)c2Cl)n1"
49.4

Can you share its cytotoxicity at 10 µM? I mean this compound: Cc1cc(C)cc(C2(C(=O)NCC3CCN(CC(F)(F)F)C3)CC2)c1 (configuration not stated)
-1.62

Can you share its cytotoxicity at 10 µM? I mean this compound: COCCOc1ccc(NC(=O)N(CC2CCOC2)C2CC2)cn1 (configuration not stated)
-1.29

Can you share its cytotoxicity at 10 µM? I mean this compound: OC(COc1ccc(F)cc1)CN1CCC(Cn2cccn2)CC1 (configuration not stated)
-9.07

Can you share its cytotoxicity at 10 µM? I mean this compound: "COc1cccc(-c2csc(Cn3ccc(=O)[nH]c3=O)n2)c1"
3.57

* * *

# TEST_DESCRIPTION: Toxicity liver stage against HepG2, at 10uM
# Type: cell-based
# Design: test concentration 10 uM, cell line HepG2-A16-CD81EGFP
# SETUP_CONDITIONS: human, HepG2-A16-CD81EGFP cells; read-out: INHIBITION
ENDPOINT_NAME: cytotoxicity at 10 µM (%)
All answers are understood in %, so give the number only.

# COMPOUND, UNIT_OF_MEASUREMENT, cytotoxicity at 10 µM
rows = [
    ("CN(C)c1nccc(C2CN(c3cnccn3)CCO2)n1 (stereo unspecified)", "%", 7.95),
    ("CCN(CC)C(=O)C1CCC(=O)N(CCc2cccc(F)c2)C1 (stereo unspecified)", "%", -4.92),
    ("CC(C)NC(=O)C1CN(Cc2cccs2)Cc2ccnn2C1 (stereo unspecified)", "%", -1.89),
    ("CC(C)CCC(=O)N1CCN(C(=O)c2ccc3nccn3c2)CC1", "%", 7.42),
    ("O=C(CN1CCc2cncnc2C1)NCCOc1cccc(Cl)c1", "%", -6.88),
]

Can you share its cytotoxicity at 10 µM? I mean this compound: "Cc1ccnc(NC(=O)C2CCN(CCCn3ccnc3C)CC2)c1"
-58.2

Can you share its cytotoxicity at 10 µM? I mean this compound: "COCCN1CCN(C(=O)c2ccccc2C(C)=O)[C@H]2CS(=O)(=O)C[C@H]21"
-5.95

Can you share its cytotoxicity at 10 µM? I mean this compound: "CC(C)OCCCN(Cc1ccncc1)Cc1cccc(F)c1F"
-15.3

Can you share its cytotoxicity at 10 µM? I mean this compound: "COCCN1C[C@H]2CCC[C@@H](CNc3ncccn3)[C@H]2C1"
-112

Can you share its cytotoxicity at 10 µM? I mean this compound: "O=C(c1cc(C2CC2)nc2onc(-c3ccccc3)c12)N1CC(O)C1"
-50.5

Can you share its cytotoxicity at 10 µM? I mean this compound: "O[C@@H]1C[C@@H](c2nc(Cc3ccccc3)no2)N(Cc2ncc[nH]2)C1"
2.63

Origin of the recorded values: ChEMBL document CHEMBL4513216
